What follows is a record of pIC50 for JAK2 (Homo sapiens (Human), UniProt O60674).
Remember, pIC50 is on a log scale: it is -log10 of the molar concentration.

Solved entries (count: 3):
1. CCc1cc(O)c(F)cc1-c1cc2[nH]nc(C(=O)NC)c2c(NCc2ccccc2N(C)S(=O)(=O)c2ccccc2)n1 [Example 22] ... 7.09
2. CCc1cc(O)c(F)cc1-c1cc2[nH]nc(C(=O)NC)c2c(NCc2ccccc2N(CC)S(C)(=O)=O)n1 [Example 9] ... 7.97
3. CCS(=O)(=O)N(C)c1ccccc1CNc1nc(-c2cc(F)c(O)cc2CC(F)(F)F)cc2[nH]nc(C(=O)NC)c12 [Example 13] ... 7.58

Enquiry: Fill in the blank: the reported pIC50 of CCc1cc(O)c(F)cc1-c1cc2[nH]ncc2c(NCc2ccccc2N(CC)S(C)(=O)=O)n1 [Example 138] is ____.
Return: 8.59

Enquiry: Now consider CNC(=O)c1n[nH]c2cc(-c3cc(F)c(O)cc3CC(F)(F)F)nc(NCc3cc(F)ccc3N(C)S(C)(=O)=O)c12 [Example 14] .
Return: 7.69

Enquiry: Now consider CCc1cc(O)c(F)cc1-c1cc2[nH]nc(C(=O)NC)c2c(NCCc2ccc(NS(=O)(=O)c3ccccc3)cc2)n1 [Example 23] .
Return: 7.59

Enquiry: Now consider CNC(=O)c1n[nH]c2cc(-c3cc(F)c(O)cc3CC(F)(F)F)nc(NCc3ccccc3N(C)S(C)(=O)=O)c12 [Example 20] .
Return: 7.78
